For each of the molecules below, state its cytotoxicity at 70.5 h.
Test: Human HepG2 cell viability assay in 384 well format
Format: toxicity, cell-based
Parameters: dose 125 nL, time 70.5 hour; concentration not given beside the values
Settings: HepG2 cells, read-out: Inhibition
Answers are plain numbers, in %.

Past entries and their recorded results:
> print(dat)
                                   molecule                quantity  result.value
1  CCCc1ccc(CN2CCN(c3ncccn3)[C@@H]3CS(=O)(=O)C[C@@H]32)o1  cytotoxicity at 70.5 h          -8.8
2  c1ccc(-n2cc(CN3CCCC(Cn4cncn4)C3)nn2)cc1 (stereo unspecified)  cytotoxicity at 70.5 h          -7.1
3  CCC(CC)c1nnc(NC(=O)N2CCCC(NC(C)=O)C2)s1 (stereo unspecified)  cytotoxicity at 70.5 h         -5.89
4  CCC(NC(=O)C1CCN(C(C)C)CC1)c1cn2cccnc2n1 (stereo unspecified)  cytotoxicity at 70.5 h         -2.43

Return reported cytotoxicity at 70.5 h values for all items listed beneath this line.
1. Cc1cnnn1Cc1ncn2c1CN(Cc1cccs1)CCC2
2. CC(C)CCN(C)Cn1ncc2cn(-c3ccccc3)nc2c1=O

1. 4.51
2. 14.5

Return reported cytotoxicity at 70.5 h values for all items listed beneath this line.
1. CC(C)C(C)NC(=O)Nc1ccc(CS(=O)(=O)C(C)C)cc1 (stereo unspecified)
2. COCCN1C(=O)[C@H]2CC[C@@H]1CN(c1ncccn1)C2
3. O=C([C@H]1C[C@H]2OCC[C@H]2N(C(=O)c2cnccn2)C1)N1CCCCO1
4. O=C(CSc1ccc2c(c1)OCCO2)NS(=O)(=O)c1ccccc1F
5. CCCN1CCC(NC(=O)c2csc(C)c2C)CC1

1: -12.6; 2: 11.5; 3: -8.15; 4: -5.01; 5: -7.88
